# experimental.protocol: E. coli DRC41 culture turbidity changes, primary screen, E. coli filamentation inducer project, strain DRC41, OD650, 48 h (AID 1152);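 note: E. coli MC1000 strain DRC41 lacking acrAB efflux pump and sulA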
# test.context: E. coli DRC41 (acrAB sulA), higher = more signal, called active from +8 up or from −8 down
measurement.name: z-score

[[record]]
molecule = "CC(C)(C)OC(=O)CC[C@]1(C(=O)O)N=C(c2ccc(OCCCO)cc2)O[C@H]1c1ccccc1"
measured_value = 1.11

[[record]]
molecule = "O=C1O[C@@H](c2ccccc2)[C@@H](c2ccccc2)N2[C@@H](c3ccccc3OCCO)[C@]3(C(=O)Nc4ccc(C#CC5=CCCCC5)cc43)[C@@H](C(=O)NC[C@H](O)c3ccccc3)[C@H]12"
measured_value = 2

[[record]]
molecule = "COCCCNC(=O)[C@]1(Cc2ccccc2CN=[N+]=[N-])N=C(c2ccc(OCCCO)cc2)O[C@@H]1c1ccccc1"
measured_value = 0.65

[[record]]
molecule = "CC[C@@H]1[C@H]2C3C(=O)N(CC)C(=O)C3CC(=O)[C@H]2[C@H](c2ccc(C)cc2)N1S(=O)(=O)c1ccc(C)cc1 (some centres not stated)"
measured_value = -0.272

[[record]]
molecule = "COC1(C)CN(Cc2ccccc2Br)[C@H](/C=C/c2ccccc2)[C@H](Cc2ccccc2)O1 (some centres not stated)"
measured_value = 1.16

[[record]]
molecule = "CCCN1C(=O)[C@]2(Cc3ccccc3)N=C(c3ccc(OCCCO)cc3)O[C@@H]2c2ccccc21"
measured_value = 0.655

[[record]]
molecule = "CCCC[C@@H]1C[C@H]1[C@@H](NC(=O)c1cccnc1)c1ccc(-c2ccccc2)cc1"
measured_value = -2.22


---

# experimental.protocol: binders of probe aFSTL3 on microarray, primary screen, stem cell growth factor project, biochemical, small-molecule microarray, fluorescence 635/667 (AID 1064);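 note: measures binding of the biotinylated anti-FSTL3 antibody to printed compounds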
# test.context: higher = more signal
Respond with class 1 for composite z-score values of -0.2 and above, class 0 for values below.

[[record]]
compound = "NC(N)=NCc1cn(CCc2c[nH]c3ccccc23)nn1"
assigned_label = "class 0"

[[record]]
compound = "CC[C@H]1C2=C3C(CC[C@H]4C(OCc5ccc(F)cc5C(F)(F)F)OC[C@](C)([C@@H]34)N(C(=O)OC(C)(C)C)C2)C2COC(=O)OCC21 (stereo partly specified)"
assigned_label = "class 1"

[[record]]
compound = "CC(C)C(=C=CC[C@@H](O)c1ccccc1OCCO)C[C@@H](O)COCc1ccccc1"
assigned_label = "class 0"

[[record]]
compound = "CCCc1cccc(=O)o1"
assigned_label = "class 0"

[[record]]
compound = "COC(=O)C1(Cc2ccccc2)C=C2C(=C(c3ccccc3)C(=O)C2C)CN1 (stereo unspecified)"
assigned_label = "class 1"

[[record]]
compound = "COCCOC(=O)N1C(=O)[C@@]2(c3cc(C#CC4=CCCCC4)ccc31)[C@H](c1ccccc1OCCO)N1[C@H](c3ccccc3)[C@H](c3ccccc3)OC(=O)[C@H]1[C@@H]2C(=O)N1CCc2cc(OC)c(OC)cc2C1"
assigned_label = "class 0"


---

# Tested on: PRMT1 (protein arginine N-methyltransferase 1)
# experimental.protocol: PRMT1 binders on small-molecule microarrays, primary screen, biochemical, small-molecule microarray, 635 nm fluorescence (AID 1088);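 note: binding of Prmt1 protein to compounds spotted on small-molecule microarray slides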
# test.context: small-molecule microarray binding, higher = more signal
Respond with Yes for composite z-score values of 1 and above, No for values below.

[[record]]
compound = "COC1(C)CN(Cc2ccccc2Br)[C@H](/C=C/c2ccccc2)[C@H](Cc2ccccc2)O1 (some centres undefined)"
assay_target = "PRMT1 (protein arginine N-methyltransferase 1)"
assigned_label = "No"

[[record]]
compound = "CN(C)CCCCNC(=O)[C@H]1C[C@H]2C(=O)N[C@@H](CCCCN(C)C)C(=O)N2[C@H]1c1cccc(OCCO)c1"
assay_target = "PRMT1 (protein arginine N-methyltransferase 1)"
assigned_label = "Yes"

[[record]]
compound = "Cc1ccc(S[C@]2(C(=O)NCCN3CCOCC3)CC(=O)N(Cc3ccccc3C(F)(F)F)[C@@H]2c2ccc(CO)cc2I)cc1"
assay_target = "PRMT1 (protein arginine N-methyltransferase 1)"
assigned_label = "No"

[[record]]
compound = "CC(C)c1ccc(NN2C(C(O)c3ccco3)C=CC3C(=O)N(c4ccccc4)C(=O)C32)cc1 (centres undefined)"
assay_target = "PRMT1 (protein arginine N-methyltransferase 1)"
assigned_label = "Yes"

[[record]]
compound = "O=C1c2ccccc2[C@](Cc2ccccc2I)(C(=O)NCCN2CCOCC2)[C@H](c2ccc(CO)cc2)N1Cc1ccccc1"
assay_target = "PRMT1 (protein arginine N-methyltransferase 1)"
assigned_label = "Yes"

[[record]]
compound = "COC(=O)[C@@]1(Cc2ccccc2)[C@H]2c3cc(C(=O)N4CCCC4)n(Cc4cc(F)cc5c4OCOC5)c3C[C@H]2CN1C(=O)c1ccccc1"
assay_target = "PRMT1 (protein arginine N-methyltransferase 1)"
assigned_label = "No"

[[record]]
compound = "COCCCNC(=O)[C@@H]1c2ccccc2C(=O)N(Cc2ccccc2C(F)(F)F)[C@H]1c1ccc(CO)cc1"
assay_target = "PRMT1 (protein arginine N-methyltransferase 1)"
assigned_label = "No"

[[record]]
compound = "CC(C)CN1C(=O)[C@@]2(Cc3ccccc31)c1ccccc1C(=O)N(Cc1ccccc1C(F)(F)F)[C@H]2c1ccc(CO)cc1"
assay_target = "PRMT1 (protein arginine N-methyltransferase 1)"
assigned_label = "No"

[[record]]
compound = "COCCOC(=O)N1C(=O)[C@@]2(c3cc(C#CCNC(N)=O)ccc31)[C@H](C(=O)N1CCCCCCC1)[C@H]1C(=O)O[C@H](c3ccccc3)[C@H](c3ccccc3)N1[C@@H]2c1ccc(O)cc1"
assay_target = "PRMT1 (protein arginine N-methyltransferase 1)"
assigned_label = "Yes"

[[record]]
compound = "O=C1O[C@@H](c2ccccc2)[C@@H](c2ccccc2)N2[C@@H](c3ccc(O)cc3)[C@]3(C(=O)Nc4ccc(C#CCCO)cc43)[C@@H](C(=O)Nc3nc4ccccc4s3)[C@H]12"
assay_target = "PRMT1 (protein arginine N-methyltransferase 1)"
assigned_label = "Yes"

[[record]]
compound = "[N-]=[N+]=Nc1ccccc1[C@H]1OC(c2ccc(OCCCO)cc2)=N[C@@]1(CCS(=O)(=O)c1ccccc1)C(=O)N1CCCCC1"
assay_target = "PRMT1 (protein arginine N-methyltransferase 1)"
assigned_label = "Yes"

[[record]]
compound = "COCCOC(=O)N1C(=O)[C@@]2(c3cc(C#Cc4ccc(OC)cc4)ccc31)[C@H](C(=O)N1CCN(c3ncccn3)CC1)[C@H]1C(=O)O[C@H](c3ccccc3)[C@H](c3ccccc3)N1[C@@H]2c1ccccc1OCCO"
assay_target = "PRMT1 (protein arginine N-methyltransferase 1)"
assigned_label = "Yes"

[[record]]
compound = "[N-]=[N+]=NCc1ccccc1C[C@@]1(C(N)=O)N=C(c2ccc(OCCCO)cc2)O[C@@H]1c1ccccc1CN=[N+]=[N-]"
assay_target = "PRMT1 (protein arginine N-methyltransferase 1)"
assigned_label = "Yes"

[[record]]
compound = "CN(C)CCCCNC(=O)[C@H]1C[C@H]2C(=O)N3CCC[C@H]3C(=O)N2[C@H]1c1ccc(O)cc1"
assay_target = "PRMT1 (protein arginine N-methyltransferase 1)"
assigned_label = "No"


---

# experimental.protocol: small-molecule binders of probe aInhba, primary screen, biochemical, small-molecule microarray, 635/667 nm fluorescence (AID 1148);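 note: score merges 667nm spot fluorescence with signal-to-noise for antibody binding to printed compounds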
# test.context: higher = more signal
measurement.name: composite z-score

[[record]]
compound = "C=CCN1C(=O)[C@@]2(O[C@@H](CCn3cc([C@H](O)c4ccccc4)nn3)[C@H]([Si](C)(C)c3ccc(OC)cc3)[C@H]2C)c2ccccc21"
measurement_name = "composite z-score"
measured_value = 0.134

[[record]]
compound = "COCCOC(=O)N1C(=O)[C@@]2(c3cc(C#CC4(O)CCCCCC4)ccc31)[C@H](c1ccccc1OCCO)N1[C@H](c3ccccc3)[C@H](c3ccccc3)OC(=O)[C@H]1[C@@H]2C(N)=O"
measurement_name = "composite z-score"
measured_value = -0.0494

[[record]]
compound = "CC(C)C(O)C1C=CC2C(=O)N(C)C(=O)C2N1N(c1ccccc1)c1ccccc1 (stereo not given)"
measurement_name = "composite z-score"
measured_value = -0.0332

[[record]]
compound = "C=CCOC(=O)[C@H]1[C@@H]2C(=O)O[C@@H](c3ccccc3)[C@@H](c3ccccc3)N2[C@@H](c2ccc(OCCOC(=O)[C@H]3C[C@H]4C(=O)N[C@@H](CCCC[N+](C)(C)C)C(=O)N4[C@H]3c3cccc(OCCO)c3)cc2)[C@]12C(=O)Nc1ccc(I)cc12"
measurement_name = "composite z-score"
measured_value = -0.13

[[record]]
compound = "CCCCN1CC=CC23O[C@@H]4C=CCOC(=O)[C@@H]4[C@H]2C(=O)N(C(C)CO)[C@@H]3C1=O (stereo not given in full)"
measurement_name = "composite z-score"
measured_value = -0.128

[[record]]
compound = "O=C(N1CCCCC1)[C@@]1(Cc2ccccc2)COC(c2ccc(OCCCO)cc2)=N1"
measurement_name = "composite z-score"
measured_value = 0.322

[[record]]
compound = "CC(C)C(O)C1C=CC2C(=O)N(C)C(=O)C2N1Nc1ccccc1 (stereo not given)"
measurement_name = "composite z-score"
measured_value = 0.85

[[record]]
compound = "CCOc1cc(C(O)C2C=CC3C(=O)N(C4CCCCC4)C(=O)C3N2Nc2ccc(OC)cc2)ccc1O (stereo not given)"
measurement_name = "composite z-score"
measured_value = 0.0808

[[record]]
compound = "O=C(CCCCCCC(=O)Nc1ccccc1)N/N=C/c1ccccc1"
measurement_name = "composite z-score"
measured_value = 0.0074

[[record]]
compound = "COc1ccc(NN2C(C(O)c3ccccn3)C=CC3C(=O)N(C4CCCCC4)C(=O)C32)cc1 (stereo not given)"
measurement_name = "composite z-score"
measured_value = 0.0183

[[record]]
compound = "COc1cc2c(cc1O)C(C)N(Cc1cc3c(cc1Br)OCO3)CC2 (stereo not given)"
measurement_name = "composite z-score"
measured_value = -0.157

[[record]]
compound = "C=CCC(OC(C)=O)[C@@H]1[C@@H](N(Cc2cc3ccccc3o2)C(=O)c2ccc(C)cc2)c2cc(OCCCO)ccc2N1C(=O)Cc1ccc2ccccc2c1 (stereo not given in full)"
measurement_name = "composite z-score"
measured_value = -0.0523

[[record]]
compound = "CC(=O)N1Cc2ccccc2C[C@]2(N=C(c3ccc(OCCCO)cc3)O[C@@H]2c2ccccc2)C1=O"
measurement_name = "composite z-score"
measured_value = 0.12

[[record]]
compound = "O=C1C2C=CC(C(O)c3cc(C(F)(F)F)cc(C(F)(F)F)c3)N(Nc3ccc([N+](=O)[O-])cc3)C2C(=O)N1c1ccccc1 (stereo not given)"
measurement_name = "composite z-score"
measured_value = 0.358

[[record]]
compound = "CC(C)CNC(=O)[C@@]1(c2ccc([N+](=O)[O-])cc2)CC(=O)N(C2CCCCC2)[C@@H]1c1ccc(CO)cc1I"
measurement_name = "composite z-score"
measured_value = 0.0633


FYI, the data here is from PubChem BioAssay.
